Readings of IC50 for the listed compounds
systemName: full length SGK1 (Homo sapiens)
Construct: 125 μM full length SGK1 (Life Technologies Part #PR7358A); purchased Life Technologies PR7358A
Sequence (O00141 1-431): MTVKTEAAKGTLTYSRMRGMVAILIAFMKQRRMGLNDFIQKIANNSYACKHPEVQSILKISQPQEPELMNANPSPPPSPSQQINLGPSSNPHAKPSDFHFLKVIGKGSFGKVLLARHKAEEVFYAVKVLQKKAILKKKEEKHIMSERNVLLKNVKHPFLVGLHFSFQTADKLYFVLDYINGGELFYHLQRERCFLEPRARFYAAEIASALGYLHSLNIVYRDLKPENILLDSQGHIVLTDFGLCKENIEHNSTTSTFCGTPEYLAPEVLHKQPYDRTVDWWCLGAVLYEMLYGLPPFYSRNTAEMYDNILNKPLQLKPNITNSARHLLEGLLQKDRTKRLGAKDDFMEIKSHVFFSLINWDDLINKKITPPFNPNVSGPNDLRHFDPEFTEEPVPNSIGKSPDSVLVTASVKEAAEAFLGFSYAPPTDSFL
assayDetails: SGK1 inhibition Assay A (Caliper LabChip electrophoretic separation of fluorescent peptide substrate and phosphorylated product)
Format: biochemical
assayConditions: Assay A; 20 μM ATP, 40 min incubation; read-out: SGK1 IC50
Respond numerically; units are nM and should not be typed.

| testSmiles | readoutUnits | IC50 |
| --- | --- | --- |
| CS(=O)(=O)c1ccc(-c2cc(N3CCC[C@@H](NC(=O)c4cn5ccccc5n4)C3)c3c(N)ncnn23)cc1 | nM | 41 |
| COCC(=O)N1CC=C(c2cc(N3CCC[C@@H](NC(=O)c4sc(Cl)cc4OCCN4CCOCC4)C3)c3c(N)ncnn23)C1 | nM | 28 |
| CN1CCC(Oc2cc(Cl)sc2C(=O)N[C@@H]2CCCN(c3cc(-c4ccc(C(N)=O)c(F)c4)n4ncnc(N)c34)C2)CC1 | nM | 2 |

Now, please, on to the next compound.
*Q* For full length SGK1 (Homo sapiens), give the measured IC50 of the entry CC(=O)N1CC=C(c2cc(N3CCC[C@@H](NC(=O)c4sc(C5CC5)cc4OC4CCN(C)CC4)C3)c3c(N)ncnn23)C1
*A* 7
